Target: muscle-type nicotinic acetylcholine receptor (nAChR) (Torpedo marmorata, UniProt P02711+Q6S3H8+Q6S3H9+Q6S3I0)
Construct: purified electroplax nAChR reconstituted in asolectin lipids and microtransplanted to Xenopus oocytes; with nAChR beta, gamma and delta subunits (alpha1, alpha2, beta, gamma, delta heteropentamer)
Sequence (P02711 25-461): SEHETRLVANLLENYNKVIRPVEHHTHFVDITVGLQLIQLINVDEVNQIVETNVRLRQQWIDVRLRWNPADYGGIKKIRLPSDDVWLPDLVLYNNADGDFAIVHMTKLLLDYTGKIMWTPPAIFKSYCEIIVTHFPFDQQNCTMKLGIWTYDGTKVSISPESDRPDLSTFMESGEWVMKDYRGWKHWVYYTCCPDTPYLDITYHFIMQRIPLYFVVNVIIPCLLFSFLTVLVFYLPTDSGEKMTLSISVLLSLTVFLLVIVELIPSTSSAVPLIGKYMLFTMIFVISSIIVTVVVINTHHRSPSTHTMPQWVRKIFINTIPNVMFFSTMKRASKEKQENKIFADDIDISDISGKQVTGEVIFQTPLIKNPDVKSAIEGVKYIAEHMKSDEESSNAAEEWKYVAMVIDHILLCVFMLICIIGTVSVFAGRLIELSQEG
Sequence (Q6S3I0 25-493): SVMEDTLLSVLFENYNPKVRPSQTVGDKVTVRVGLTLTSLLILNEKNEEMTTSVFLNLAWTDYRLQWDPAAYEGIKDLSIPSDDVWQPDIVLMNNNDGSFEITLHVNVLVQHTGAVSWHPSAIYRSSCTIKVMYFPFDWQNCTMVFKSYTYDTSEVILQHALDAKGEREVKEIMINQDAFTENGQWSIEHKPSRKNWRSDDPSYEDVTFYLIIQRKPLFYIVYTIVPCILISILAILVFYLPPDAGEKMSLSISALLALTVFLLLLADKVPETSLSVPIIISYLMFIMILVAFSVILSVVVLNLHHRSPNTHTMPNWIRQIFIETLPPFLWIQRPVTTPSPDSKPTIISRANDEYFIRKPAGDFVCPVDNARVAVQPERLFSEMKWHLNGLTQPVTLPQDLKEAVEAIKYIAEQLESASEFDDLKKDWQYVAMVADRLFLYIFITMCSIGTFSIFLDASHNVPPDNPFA
Sequence (Q6S3H9 18-505): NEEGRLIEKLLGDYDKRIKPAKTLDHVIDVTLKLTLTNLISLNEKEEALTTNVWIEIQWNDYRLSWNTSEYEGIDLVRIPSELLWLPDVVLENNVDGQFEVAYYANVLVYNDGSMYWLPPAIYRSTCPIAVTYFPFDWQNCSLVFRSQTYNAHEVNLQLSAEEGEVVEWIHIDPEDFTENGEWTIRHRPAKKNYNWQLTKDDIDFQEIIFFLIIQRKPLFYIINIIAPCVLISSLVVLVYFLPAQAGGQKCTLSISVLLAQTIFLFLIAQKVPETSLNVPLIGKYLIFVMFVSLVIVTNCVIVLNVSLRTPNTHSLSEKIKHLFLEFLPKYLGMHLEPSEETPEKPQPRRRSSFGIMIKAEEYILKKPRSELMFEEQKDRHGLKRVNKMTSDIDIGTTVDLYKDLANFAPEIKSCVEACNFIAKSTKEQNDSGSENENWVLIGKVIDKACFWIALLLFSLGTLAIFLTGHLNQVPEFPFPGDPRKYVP
Sequence (Q6S3H8 22-522): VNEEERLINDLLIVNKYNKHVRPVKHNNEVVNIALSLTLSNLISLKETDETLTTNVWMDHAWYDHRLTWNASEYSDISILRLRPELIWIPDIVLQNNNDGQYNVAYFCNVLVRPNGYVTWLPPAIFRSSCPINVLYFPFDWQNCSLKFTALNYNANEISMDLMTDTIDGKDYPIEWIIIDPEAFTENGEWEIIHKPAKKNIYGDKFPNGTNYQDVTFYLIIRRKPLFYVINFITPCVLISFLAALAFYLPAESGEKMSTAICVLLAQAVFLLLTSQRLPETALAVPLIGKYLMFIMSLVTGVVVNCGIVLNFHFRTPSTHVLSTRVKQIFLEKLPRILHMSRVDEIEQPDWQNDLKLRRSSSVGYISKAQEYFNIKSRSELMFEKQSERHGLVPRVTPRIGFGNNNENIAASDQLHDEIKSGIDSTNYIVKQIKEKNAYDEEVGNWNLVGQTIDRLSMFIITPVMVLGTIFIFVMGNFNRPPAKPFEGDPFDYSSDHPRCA
Assay: two-electrode voltage clamp in Xenopus oocytes, inhibition of current evoked by […] ACh
pIC50: −log10 of the molar value.
measureName: pIC50

structureAsSmiles	observedMeasurement
Cc1cccc(C)c1N	2.68
